Test system: MS2 coat protein
Experiment: apparent KD of MS2 coat protein, switch OFF state (with FMN for OFF switches, without FMN for ON switches); designed switch direction (-1 OFF switch, 1 ON switch): -1; higher = weaker reporter binding
Conditions: FMN input: 0 or 200 uM; Eterna round: R93 (includes R88 designs)

# MACROMOLECULE SEQUENCE, READOUT UNITS, apparent KD of MS2 coat protein
data = [
    ("AAAAAACAUGAGGAUCACCCAUGUGAGGAUAUGCUAUGGAAAUAAAAAAUAAAACAUAGCAGAAGGCACACCAA [Mat - Exclusion 1 - Eli mod - D44]", "nM", 42.9),
    ("AACAUACAUGAGGAUCACCCAUGUUAGGAUAUGCCGGGUUAGAGCCAACUAAAAAACCGUAGAAGGGACGAAAA [Bilbo Confounded 10 - Jieux - Exclusion 1]", "nM", 28.2),
    ("CAUUCACAUGAGGAUCACCCAUGUAAGGAUAUCGAAAUAUAACUAAUCAAUAAACAAACGAGAAGGUACAAAAA [Exclusion 1 design 10]", "nM", 23.8),
]

----------
Entries and their apparent KD of MS2 coat protein
System: MS2 coat protein
Experiment: apparent KD of MS2 coat protein; designed switch direction (-1 OFF switch, 1 ON switch): -1; higher = weaker reporter binding
Details: input ligand: FMN 200 uM

# MACROMOLECULE SEQUENCE, apparent KD of MS2 coat protein
data = [
    ("GAAUGAGAGCAGGAUAUCUUAAAAAUGUAUAAAAGAGAAGGGCUCACAUGAGGAUCACCCAUGUGGUCCUAGAU [jl-ex6-4.69 jandersonlee mod] (Eterna round: R97, puzzle: Exclusion 6)", "572 nM"),
    ("AAGGGUGCUUUCAGAACGACAUGAGGAUCACCCAUGUAGACUGAGGAUAUCUACUCCUAAGGACGGGAGAAGGCAGUGUAAUGC [Ex NG3 #65] (Eterna round: R96, puzzle: Exclusion NG 3)", "19.5 nM"),
    ("CCUAGACAUGAGGAUCACCCAUGUGAGGAUAUGAUGCGAUCGUCGAAAGACGAUAGCAUCAGAAGGCACAUAUG [Fiskers Ex 1 - 5] (Eterna round: R96, puzzle: Exclusion 1)", "130 nM"),
    ("UCACGGGACUGAGGAUAUACAUGAACCAUGUUUGUAGAAGGCAGAAGGUUUGAUCAUACACUAAACAUGAGGAUCACCCAUGUU [JR_ExcNG1_Sub027] (Eterna round: R96, puzzle: Exclusion NG 1)", "21.1 nM"),
    ("UUGUUACAUGAGGAUCACCCAUGUGAGGAUAUGGUUCAGUACUGUAAUGUAAAGUACUCCAGAAGGCACAUGUU [1st #28] (Eterna round: R97, puzzle: Exclusion 1)", "693 nM"),
    ("GUUAAUUGUGACAUGGGUGACAUGAGGAUCACCCAUGUCACAAGCUUUUUGCUCGUCUUAUAAUUAACCCAUGUCAC [Stov1/13-A2] (Eterna round: R97, puzzle: Sensor, turn-off variant 1)", "29.1 nM"),
    ("AGGUGCUUCUGGAGACAUGAGGAUCACCCAUGUUGAGUUAGCGAGGAUAUCGGUAAGGCAUGUGAUGAGAAGGCGCAAACCGAU [Ex NG3 #49] (Eterna round: R96, puzzle: Exclusion NG 3)", "50.6 nM"),
    ("AGAUCGUCAGGAUAUACAUGAGGAUCACCCAUGUACUGUCUAAAUUUGACUGUAAGAUGUAGAAGGGACGAUCG [Exclusion 3 (MOD9 of #1 Marzena11)] (Eterna round: R97, puzzle: Exclusion 3)", "67.3 nM"),
    ("AAAGGCUCAGGAUAUGCCCAGGAAGACAUGAGGAUCACCCAUGUACUACGGGUGUCAUACGCAGAAGGGAGAUAGA [EX5 C.28] (Eterna round: R97, puzzle: Exclusion 5)", "25.1 nM"),
    ("AAGGAUCGAGGAUAUACAUAGAUACAGAUUCAUGUAGAACUACAUGAGGAUCACCCAUGUAGAAGGCGAUCCUA [Mat - Same state - Mayanna Mod - D120] (Eterna round: R96, puzzle: Exclusion 2)", "367 nM"),
    ("GGAUAAAACCGAGGAUAUACGUAUCACUAACGAGUAGAAGGCGGACAUGAGGAUCACCCAUGUGAGUUCUCAAUAAGAAACACG [Prohibition 64 - Jieux - Exclusion NG 1] (Eterna round: R96, puzzle: Exclusion NG 1)", "519 nM"),
    ("GUCCUGGUAGGAUAUGAGGUUCACGACAUGAGGAUCACCCAUGUGGCCGUGUCUCAUACUUCAGAAGGACCGACAG [Eternabot (L2) Solution 5] (Eterna round: R97, puzzle: Exclusion 5)", "16.1 nM"),
    ("UGGUCACAUGAGGAUCACCCAUGUCAGGAUAUCGUCACUGGAGCUUCGGCUCCAGUGACGAGAAGGGAUAUAAU [E1/9-A1] (Eterna round: R97, puzzle: Exclusion 1)", "191 nM"),
    ("CCGAACUCAGGAUAUGCAUGUAUAACAGAGAGAUCCACUAAACAUGAGGAUCACCCAUGUAGAAGGGAGUCGGG [Eternabot (L1) Solution 14] (Eterna round: R97, puzzle: Exclusion 2)", "887 nM"),
    ("GUCAGCUCGUGAGGAUAUGAACAUGAGGAUCACCCAUGUAAGAUCAAGCUGCUUCGGCAGCAAGUUCAGAAGGUACGAGCUGAU [ENG2/10-C2] (Eterna round: R96, puzzle: Exclusion NG 2)", "243 nM"),
    ("CACUGCAGGUUAGGAUAUGGACAACAACAUGAGGAUCACCCAUGUAUGUAUGAACAUGUUGAUCACCAGAAGGAACACAUCAGU [Exclusion NG 2 S2] (Eterna round: R96, puzzle: Exclusion NG 2)", "12.2 nM"),
    ("AUAUAGAUAGUCAGGAUAUUCUAGUGAUAACAGUAGGAGAAGGGACAUGAGGAUCACCCAUGUAGAUAGUGCAC [Brourd's EX4 #15] (Eterna round: R97, puzzle: Brourd's mod of Exclusion 4)", "42.9 nM"),
    ("CUUCGUUGCAAGGAUAUGUGAACGAAGAGGGAUACAGAAGGUGCUACAUGAGGAUCACCCAUGUGGGUUGAUUU [Eternabot (L1) Solution 48] (Eterna round: R97, puzzle: Exclusion 6)", "363 nM"),
]
